- SYSTEM_TESTED: CYP3A (Homo sapiens)
- Sequence (P08684 2-503): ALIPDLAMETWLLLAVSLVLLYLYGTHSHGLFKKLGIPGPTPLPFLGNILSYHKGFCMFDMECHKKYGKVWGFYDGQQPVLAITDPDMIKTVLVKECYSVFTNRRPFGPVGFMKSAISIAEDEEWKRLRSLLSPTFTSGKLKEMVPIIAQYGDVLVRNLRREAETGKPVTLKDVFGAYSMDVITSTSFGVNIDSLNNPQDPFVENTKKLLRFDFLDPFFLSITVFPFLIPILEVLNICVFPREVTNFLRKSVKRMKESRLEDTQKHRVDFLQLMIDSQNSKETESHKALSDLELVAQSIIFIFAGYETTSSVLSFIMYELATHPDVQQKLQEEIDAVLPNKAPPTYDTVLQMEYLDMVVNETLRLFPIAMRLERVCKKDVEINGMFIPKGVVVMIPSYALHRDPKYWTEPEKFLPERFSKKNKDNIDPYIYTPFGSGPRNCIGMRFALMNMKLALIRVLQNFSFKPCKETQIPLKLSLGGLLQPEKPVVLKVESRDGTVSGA
- ASSAY_NOTES: in vitro
- MEASUREMENT_CONTEXT: microsomes, pH 7.4, % of Control Enzyme Activity, 0.0137 μM, n=1
MEASUREMENT_KIND: activity at 0.0137 µM (%)
# value in %; strip the unit string

Bench note: what activity at 0.0137 µM did O=C(O)c1cc(-c2ccc(/C=C3\SC(=S)N(CCc4ccccc4)C3=O)o2)ccc1Cl show?
96.7

---

- SYSTEM_TESTED: CYP2C9 (Homo sapiens, UniProt P11712)
- Sequence (P11712 whole entry): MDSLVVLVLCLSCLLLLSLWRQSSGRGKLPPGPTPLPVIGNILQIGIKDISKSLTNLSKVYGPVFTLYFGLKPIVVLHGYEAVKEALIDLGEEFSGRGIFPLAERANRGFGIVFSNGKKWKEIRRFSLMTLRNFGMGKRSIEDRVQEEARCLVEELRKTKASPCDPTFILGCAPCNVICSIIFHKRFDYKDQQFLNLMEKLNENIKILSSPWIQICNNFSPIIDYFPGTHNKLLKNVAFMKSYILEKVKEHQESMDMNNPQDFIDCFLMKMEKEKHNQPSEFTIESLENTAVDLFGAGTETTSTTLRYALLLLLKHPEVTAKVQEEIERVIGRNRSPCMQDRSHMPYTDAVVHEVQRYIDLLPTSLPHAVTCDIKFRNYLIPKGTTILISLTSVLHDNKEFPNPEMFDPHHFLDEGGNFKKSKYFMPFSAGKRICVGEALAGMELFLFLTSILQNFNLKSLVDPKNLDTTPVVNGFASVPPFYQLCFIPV
- ASSAY_NOTES: in vitro
- MEASUREMENT_CONTEXT: microsomes, pH 7.4
MEASUREMENT_KIND: activity at 0.0137 µM (%)
# value in %; strip the unit string

Bench note: what activity at 0.0137 µM did O=C(O)c1cc(-c2ccc(/C=C3\SC(=S)N(CCc4ccccc4)C3=O)o2)ccc1Cl show?
99.4
